Listing of entries alongside the reported IC50.
target: UniProtKB Q8WUI4; assay: HDAC deacetylase homogenous fluorescence assay, HDAC7; type: biochemical
The figure you give is taken to be in µM; do not add the unit.

O=c1c2ccccc2[se]n1-c1ccccc1 [Ebselen, 2-phenyl-1,2-benzisoselenazol-3(2H)-one]	10.9

Let us examine a further case.
Prompt: Quote IC50 reported for O=C1C(SCCO)=C(SCCO)C(=O)c2ccccc21 [NSC-95397] please.
Completion: 13.1

* * *

target: HDAC9 (Homo sapiens, UniProt Q9UKV0); assay: HDAC deacetylase homogenous fluorescence assay, HDAC9; format: biochemical; details: read-out: HDAC9 Ki; converted from IC50 using Cheng-Prusoff equation
Sequence (Q9UKV0 whole entry): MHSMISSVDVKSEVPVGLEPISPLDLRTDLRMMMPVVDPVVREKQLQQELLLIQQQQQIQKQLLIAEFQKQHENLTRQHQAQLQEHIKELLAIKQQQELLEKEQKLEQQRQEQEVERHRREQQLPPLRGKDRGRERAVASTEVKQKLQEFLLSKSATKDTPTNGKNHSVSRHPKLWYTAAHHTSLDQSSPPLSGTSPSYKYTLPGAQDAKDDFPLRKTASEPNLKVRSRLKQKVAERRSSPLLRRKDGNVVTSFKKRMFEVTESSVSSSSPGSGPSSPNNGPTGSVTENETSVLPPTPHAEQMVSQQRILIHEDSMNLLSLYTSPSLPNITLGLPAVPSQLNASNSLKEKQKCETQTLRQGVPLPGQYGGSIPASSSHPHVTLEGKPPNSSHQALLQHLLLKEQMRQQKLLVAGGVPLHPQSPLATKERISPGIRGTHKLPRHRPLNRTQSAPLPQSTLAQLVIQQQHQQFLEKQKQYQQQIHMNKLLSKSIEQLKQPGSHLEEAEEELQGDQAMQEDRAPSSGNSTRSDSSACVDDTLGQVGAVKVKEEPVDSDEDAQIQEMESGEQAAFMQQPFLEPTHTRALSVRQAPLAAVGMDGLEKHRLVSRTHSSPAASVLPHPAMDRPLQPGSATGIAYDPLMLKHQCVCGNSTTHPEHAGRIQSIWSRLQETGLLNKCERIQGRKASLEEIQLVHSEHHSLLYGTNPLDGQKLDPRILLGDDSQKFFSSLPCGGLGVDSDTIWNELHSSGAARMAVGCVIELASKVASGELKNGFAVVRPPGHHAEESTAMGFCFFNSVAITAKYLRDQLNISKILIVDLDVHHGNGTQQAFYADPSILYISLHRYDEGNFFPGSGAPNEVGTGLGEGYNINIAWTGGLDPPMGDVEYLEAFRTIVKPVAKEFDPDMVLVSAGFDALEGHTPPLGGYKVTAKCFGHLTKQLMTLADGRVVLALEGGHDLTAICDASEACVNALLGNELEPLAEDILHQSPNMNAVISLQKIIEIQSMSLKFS
measured_parameter: Ki

Some solved entries appear below for comparison.
COc1ccc2c(c1)CC[C@@H]1[C@@H]2CC[C@]2(C)[C@@H](NCCCCCCN3C(=O)C=CC3=O)CC[C@@H]12	12.7 µM
NC(N)=Nc1ccc2[nH]c3c(c2c1)C[C@@]1(O)[C@H]2Cc4ccc(O)c5c4[C@@]1(CCN2CC1CC1)[C@H]3O5	5.23 µM

Let us examine a further case.
Prompt: Report measured Ki on HDAC9 (Homo sapiens, UniProt Q9UKV0); entry: OC[C@H]1O[C@H]([S-])[C@H](O)[C@@H](O)[C@@H]1O.[Au+] [Aurothioglucose, 1-thio-D-glucopyronaose gold salt]
Completion: 1.19 µM

* * *

molecular target: HDAC4 (Homo sapiens); assay: HDAC deacetylase homogenous fluorescence assay, HDAC4; format: biochemical
Sequence (P56524 whole entry): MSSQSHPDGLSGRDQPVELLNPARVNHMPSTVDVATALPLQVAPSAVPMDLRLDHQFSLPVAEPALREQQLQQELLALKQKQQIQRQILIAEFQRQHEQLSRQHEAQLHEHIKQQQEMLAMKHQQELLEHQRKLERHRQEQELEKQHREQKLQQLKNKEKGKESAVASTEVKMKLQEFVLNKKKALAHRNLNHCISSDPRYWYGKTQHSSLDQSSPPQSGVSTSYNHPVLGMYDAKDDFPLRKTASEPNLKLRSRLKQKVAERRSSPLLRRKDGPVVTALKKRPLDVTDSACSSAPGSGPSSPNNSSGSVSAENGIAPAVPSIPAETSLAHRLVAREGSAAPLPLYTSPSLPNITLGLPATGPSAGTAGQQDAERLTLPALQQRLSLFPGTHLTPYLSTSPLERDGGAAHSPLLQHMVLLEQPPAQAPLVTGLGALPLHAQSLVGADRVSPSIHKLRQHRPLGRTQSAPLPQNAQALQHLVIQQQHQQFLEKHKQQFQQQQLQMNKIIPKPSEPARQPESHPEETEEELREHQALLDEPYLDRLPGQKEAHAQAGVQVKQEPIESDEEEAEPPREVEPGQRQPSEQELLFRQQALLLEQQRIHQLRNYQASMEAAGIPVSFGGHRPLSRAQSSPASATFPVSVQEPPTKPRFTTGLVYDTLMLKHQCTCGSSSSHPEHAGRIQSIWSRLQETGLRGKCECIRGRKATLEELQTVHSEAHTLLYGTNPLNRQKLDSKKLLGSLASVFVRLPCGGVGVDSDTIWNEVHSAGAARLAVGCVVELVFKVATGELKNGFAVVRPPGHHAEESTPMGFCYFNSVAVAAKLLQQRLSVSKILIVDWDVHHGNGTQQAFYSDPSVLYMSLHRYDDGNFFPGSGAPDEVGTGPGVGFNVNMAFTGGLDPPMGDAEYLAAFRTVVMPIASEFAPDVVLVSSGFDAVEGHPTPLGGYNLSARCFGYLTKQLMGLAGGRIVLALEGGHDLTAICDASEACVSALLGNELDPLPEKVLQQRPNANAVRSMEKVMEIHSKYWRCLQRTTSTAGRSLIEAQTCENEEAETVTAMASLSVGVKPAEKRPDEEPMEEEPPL
measured_parameter: pIC50
Keep in mind that pIC50 stands for -log10 of concentration in molar terms.

O=c1c2ccccc2[se]n1-c1ccccc1	5.92

Let us examine a further case.
Prompt: Quote pIC50 reported for `O=C1C(SCCO)=C(SCCO)C(=O)c2ccccc21` please.
Completion: 5.14

* * *

target: HDAC1 (Homo sapiens); assay: HDAC deacetylase homogenous fluorescence assay, HDAC1; assay type: biochemical
Sequence (Q13547 whole entry): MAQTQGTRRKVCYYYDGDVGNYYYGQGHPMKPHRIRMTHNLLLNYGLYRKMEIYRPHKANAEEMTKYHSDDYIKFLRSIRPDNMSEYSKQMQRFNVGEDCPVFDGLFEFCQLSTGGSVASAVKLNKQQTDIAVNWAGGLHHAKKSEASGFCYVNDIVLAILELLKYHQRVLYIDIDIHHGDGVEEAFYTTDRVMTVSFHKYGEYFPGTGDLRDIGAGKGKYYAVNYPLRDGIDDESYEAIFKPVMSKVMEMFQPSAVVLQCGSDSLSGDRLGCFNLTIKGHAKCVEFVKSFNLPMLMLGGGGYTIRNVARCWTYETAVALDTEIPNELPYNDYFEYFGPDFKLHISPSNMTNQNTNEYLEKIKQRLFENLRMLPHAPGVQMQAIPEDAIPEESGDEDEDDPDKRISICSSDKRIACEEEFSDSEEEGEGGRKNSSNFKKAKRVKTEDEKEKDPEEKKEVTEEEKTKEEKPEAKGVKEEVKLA
measured_parameter: pIC50
Keep in mind that pIC50 stands for -log10 of concentration in molar terms.

Prompt: Quote pIC50 reported for O=c1c2ccccc2[se]n1-c1ccccc1 [Ebselen, 2-phenyl-1,2-benzisoselenazol-3(2H)-one] please.
Completion: 5.82

* * *

Target: HDAC7 (Homo sapiens, UniProt Q8WUI4)
Sequence (Q8WUI4 1-952): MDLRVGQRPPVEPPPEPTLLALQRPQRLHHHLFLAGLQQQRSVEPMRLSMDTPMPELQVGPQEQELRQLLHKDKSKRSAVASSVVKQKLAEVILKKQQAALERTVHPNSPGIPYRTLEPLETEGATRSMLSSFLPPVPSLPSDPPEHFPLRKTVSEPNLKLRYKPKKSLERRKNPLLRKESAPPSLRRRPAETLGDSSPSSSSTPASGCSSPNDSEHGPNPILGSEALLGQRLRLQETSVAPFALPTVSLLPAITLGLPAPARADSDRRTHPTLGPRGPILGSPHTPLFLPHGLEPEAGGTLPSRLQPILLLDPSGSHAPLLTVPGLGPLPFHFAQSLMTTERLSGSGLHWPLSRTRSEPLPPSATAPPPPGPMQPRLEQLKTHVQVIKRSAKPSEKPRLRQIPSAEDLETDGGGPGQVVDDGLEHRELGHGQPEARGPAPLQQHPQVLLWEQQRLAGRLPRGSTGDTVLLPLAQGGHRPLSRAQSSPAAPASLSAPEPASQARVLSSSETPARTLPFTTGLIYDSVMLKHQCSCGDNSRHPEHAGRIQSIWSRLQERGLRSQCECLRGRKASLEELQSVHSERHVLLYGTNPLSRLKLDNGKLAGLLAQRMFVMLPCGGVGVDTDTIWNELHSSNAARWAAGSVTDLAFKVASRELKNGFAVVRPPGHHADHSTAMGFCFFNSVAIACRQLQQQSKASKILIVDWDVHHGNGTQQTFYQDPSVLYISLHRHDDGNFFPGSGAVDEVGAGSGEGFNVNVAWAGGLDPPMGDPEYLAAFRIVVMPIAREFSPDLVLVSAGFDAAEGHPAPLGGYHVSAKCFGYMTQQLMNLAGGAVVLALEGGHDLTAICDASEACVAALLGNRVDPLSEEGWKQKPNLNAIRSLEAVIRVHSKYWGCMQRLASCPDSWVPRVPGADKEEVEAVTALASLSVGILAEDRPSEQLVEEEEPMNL
Experiment: HDAC deacetylase homogenous fluorescence assay, HDAC7
Assay type: biochemical
Conditions: read-out: HDAC7 IC50; 12 point titration, trifluoroacetylated substrate
measured_parameter: IC50 (µM)
The figure you give is taken to be in µM; do not add the unit.

OC[C@H]1O[C@H]([S-])[C@H](O)[C@@H](O)[C@@H]1O.[Au+] [Aurothioglucose, 1-thio-D-glucopyronaose gold salt]	22.4

Let us examine a further case.
Prompt: Quote IC50 reported for NC(N)=Nc1ccc2[nH]c3c(c2c1)C[C@@]1(O)[C@H]2Cc4ccc(O)c5c4[C@@]1(CCN2CC1CC1)[C@H]3O5 [GNTI] please.
Completion: 18.9

The measurements presented in this section are drawn from paper PMC3288198.
